Target: MLL1-WDR5 protein-protein interaction (Homo sapiens (Human))
Assay: WDR5 TR-FRET assay of inhibition against MLL1-WDR5 protein-protein interaction
Format: binding
Conditions: Table 7; read-out: WDR5 TR-FRET Assay (IC50 nM)
So basically: is IC50 under 10 nM? Then Y. Not under? Then N.

API: query returns whether the compound falls strictly under 10 nM in IC50. Query: C[C@@H]1CN(c2ccc(-c3cc(CNC4CCCCC4)ccc3F)cc2Nc2ncnc(Cl)c2N)C[C@H](C)N1C [DDO-2213_030] N

Answer whether the compound C[C@@H]1CN(c2cc(F)c(-c3cnc(N4CCOCC4)nc3)cc2Nc2ncnc(Cl)c2N)C[C@H](C)N1C [DDO-2213_021] has IC50 strictly less than 10 nM N

State whether 10 nM exceeds IC50 recorded for C[C@@H]1CN(c2cc(F)c(-c3ccc(OCC4CC4)nc3)cc2Nc2ncnc(Cl)c2N)C[C@H](C)N1C [DDO-2213_022] . N

Check if IC50 falls below 10 nM for C[C@H]1CN(c2cc(F)c(-c3ccnc(OCC4CC4)c3)cc2Nc2ncnc(Cl)c2N)CCN1C [DDO-2213_008] . Y

Lab log: compare recorded IC50 with 10 nM; is it strictly lower for CCCC(=O)Nc1ccc(-c2cc(Nc3ncnc(Cl)c3N)c(N3C[C@@H](C)N(C)[C@@H](C)C3)cc2F)cc1 [DDO-2213_007] ? N

hey, is IC50 for C[C@H]1CN(c2cc(F)c(-c3cnc(N4CCOCC4)nc3)cc2Nc2ncnc(Cl)c2N)CCN1C [DDO-2213_020] lower than 10 nM or not? Y

Read the next record carefully.
Lab log: compare recorded IC50 with 10 nM; is it strictly lower for C[C@H]1CN(c2cc(F)c(-c3ccc(NC(=O)C4CCCCC4)cc3)cc2Nc2ncnc(Cl)c2N)CCN1C [DDO-2213_005] ? N
